These measurements were taken from patent US20160200799A1.

Biological target: Influenza virus A/Panama/2007/1999 (H3N2) (Influenza A virus A/Panama/2007/1999 (H3N2))
Test: ELISA on coated viral particles
# Lookup of reported Binding activity (absorbance at 492 nm) keyed by entry
PROPERTY: Binding activity (absorbance at 492 nm)

BINDER	PROPERTY	EXPERIMENTAL_RESULT
Group 48 representative clone F083-389, Fab-cp3-type antibody (Fab, V domains shown) VH: QVQLVQSGAEVKKPGSSVKVSCKASGDIFNKFAITWVRQAPGQGLEWMGGITALFATTSYAQKFQDRVTINWDESTTTAFMELSSLRFEDTAVYYCARGPNYYETYLDNWGQGTLVTVSS VL: EIVLTQSPTILSASVGDRVTITCRASQSISKWLAWYQQKPGKVPKLLIYMASTLESGVPSRFSGSGSGSEFTLTISSLQPGDFATYYCQQYNSYPRTFGQGTKVEINV	Binding activity (absorbance at 492 nm)	0.14
Group 38 representative clone F082-338, Fab-cp3-type antibody (Fab, V domains shown) VH: QVQLQESGAEVKKPGSSVKVSCKASGGPFRSHAISWVRQAAGQGLEWMGGITAVFGTANYAQKFQGRVTITADESTNIVSMELSSLRSEDTAIYYCARSLGYHTQYNGMDVWGQGTTVTVSS VL: DVVMTQSPSSVSASVGDRVTITCRASQGISSWLAWYQQKPGKAPKLLIYAASSLQSGVPSRFSGSGSGTDFTLTISSLQPEDFATYYCQQANSFPITFGQGTRLEIK	Binding activity (absorbance at 492 nm)	0.13
Group 59 representative clone F083-351, Fab-cp3-type antibody (Fab, V domains shown) VH: QVQLVQSGADVKKAGSSVKVSCKASGRTFGNYAISWVRQAPGQGLEWMGGITPIFGAANYAQKFQGRVTISADLSTRMVYMDLSSLRSDDTAFYYCAGHPMYHYGSAMDYWGQGTLVTVSS VL: QSVLTQPPSASGTPGQRVSISCFGSRSNVGSSSVNWYQQLPGRAPKLLIQRNDQRPSGVPDRFSGSKSGTSASLAISGLQSDDESTYYCAAWDDSVKSVVFGGGTQLTVLG	Binding activity (absorbance at 492 nm)	0.21
Group 36 representative clone F082-243, Fab-cp3-type antibody (Fab, V domains shown) VH: QVQLQQSGAEVKKPGSSVKVSCKASGGIFRKNAISWVRQAPGQGLEWMGGIIAIFGTANYAQKFQGRVTITADDSTNTVYMELTSLRYEDTAVYYCARGPNYYENYFDFWGQGTLVTVSS VL: EIVLTQSPSSLSASLRDTVTITCRTSQAITNYLAWYQQRPGKAPKLLIYAASVLQSGVPSRFSGSGSGTDFTLTISSLQPEDFATYYCQKYDSAPYTFGQGTKLEIK	Binding activity (absorbance at 492 nm)	0.13
Group 54 representative clone F083-354, Fab-cp3-type antibody (Fab, V domains shown) VH: QVQLVQSGSEVKKPGSSVKVSCKASGGIFNSYGISWVRQAPGQGLEWMGGILAIFGTTNYAQKFQGRVTITADDSSKTVYMELSSLTSEDTAVYYCARGSTYYSSYFDQWGQGTLVTVSS VL: DIQMTQSPSSLSASVGDRVTITCRASQGIRNSLAWYQQKPGQVPKLLIYSATTLRSGVPYRFSGSGSGTDFTLTISGLQPEDVGTYFCHRYDSAPLTFGGGTRVALK	Binding activity (absorbance at 492 nm)	0.16
Group 56 representative clone F083-318, Fab-cp3-type antibody (Fab, V domains shown) VH: EVQLVQSGAEVKKPGSSVKVSCQASGSIFSNYAINWVRQAPGQGLEWMGGIVPIFGTTRFAQKFQGRLTITADEPRSTAYMELNNLISEDTAVYYCARAPLIYNWYYDLWGRGTLVTVSS VL: EIVLTQSPSSLSASVGDRVTITCRASQGISNYLAWYQQKPGKVPKLLIYAASTLQSGVPSRFSGSGSGTDFTLTISSLQPEDVATYYCQKYNSAPHTFGPGTKVDIK	Binding activity (absorbance at 492 nm)	0.16
Group 55 representative clone F083-305, Fab-cp3-type antibody (Fab, V domains shown) VH: EVQLVESGAEVKKPGSSVKVSCKASGSIFSNYAISWVRQAPGQGLEWMGGIVPMFGTTRFAQKFQGRVTITADESRSTAYMELNNLISEDTAVYYCARAPLIYNWYFDLWGRGTLVTVSS VL: EIVLTQSPSFVSASVGDRVSITCRASQGISSWLAWYQQKPGKAPRLLIYGASNLQSGVPSRFSGSGSGTDYTLTINSLQPEDFATYYCQQARTFPVTFGQGTKLEIK	Binding activity (absorbance at 492 nm)	0.15
Group 47 representative clone F083-308, Fab-cp3-type antibody (Fab, V domains shown) VH: QVQLVQSGAEVKKPGSSVKVSCKASGGIFRSHAISWVRQAPGQGLEWMGGIIAIFGTTHYAQQFQGRVTITADESTSTVYMELSTLRSEDTAVYYCARGPNYFESYFDNWGQGTLVTVSS VL: EIVLTQSPATLSLSPGERATLSCRASQTISSYLAWYQQKPGQAPRLLIYGASNRATGIPARFSGSGSGTDFTLTINSLEPEDFAVYYCQQRSSWPPITFGQGTRLEIK	Binding activity (absorbance at 492 nm)	0.16
Group 1 representative clone F080-227, Fab-cp3-type antibody (Fab, V domains shown) VH: QVQLQESGAEVKKPGSSVKVSCKASGGIFRRNAISWVRQAPGQGLEWMGGIIAIFGTANYAQKFQGRVTITADESTSTVYMELSSLRPEDTAVYYCARGPNYYENFFDYWGQGTLVTVSS VL: DIVMTQSPSSLSASVGDRLDLTCRASQDIANSLAWYKQRPGKAPELLVFGASRLEGGVPSRFSGTRAGTDFTLTISSLQPEDLGTYFCQQYFSFPRTFGQGTTLDLR	Binding activity (absorbance at 492 nm)	0.14
Group 43 representative clone F081-007, Fab-cp3-type antibody (Fab, V domains shown) VH: QVQLQQSGAEVKKPGSSVKVSCKASGGIFRKNAISWVRQAPGQGLEWMGGISAIFGTANYAQKFQGRVTITADESSNTVYMDLSRLRSEDTAIYYCASHPTYHFDKSGYRFDSWGQGTLVTVSS VL: QSVLTQPPSVSAAPGQKVTISCSGSSSNIGNNYVSWYQQLPGTAPKLLIYDNNKRPSGIPDRFSGSKSGTSATLGITGLQTGDEADYYCGTWDSSLSAGVFGGGTKLTVLG	Binding activity (absorbance at 492 nm)	0.14
